B1: KCNK9 (parent)
chain: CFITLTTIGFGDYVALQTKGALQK

variants of: B1; assay: protein stability index of a GFP-peptide fusion (GPS, HEK-293T) (PSI 1-6); higher = more stable; conditions: c terminus: a fixed tail appended;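 also: lentivirally expressed fusions sorted by FACS into six bins by GFP to DsRed ratio, PSI derived from sequencing read proportions per bin multiplied by bin number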
Catalogue of variants with associated protein stability index
Give only the figure.

ALTERATION	REPORTED_VALUE
Y13W	2.93
G9W	2.9
K24T	3.42
D12Y	3.4
T18R	2.64
A21F	3.44

Indicate its recorded protein stability index; the variant in question is K24H
2.47

// fetch protein stability index given entry G9K
2.5

Return value of protein stability index for input F10Y , no commentary.
2.12

Give protein stability index for L16F
2.53

Fill in protein stability index for record G9H
2.51
